- Subject Of Test: rat plasma DPP-IV (Rattus norvegicus)
- Construct: DPP-IV activity in human and rat plasma
- Sequence (P14740 37-767 limits assumed): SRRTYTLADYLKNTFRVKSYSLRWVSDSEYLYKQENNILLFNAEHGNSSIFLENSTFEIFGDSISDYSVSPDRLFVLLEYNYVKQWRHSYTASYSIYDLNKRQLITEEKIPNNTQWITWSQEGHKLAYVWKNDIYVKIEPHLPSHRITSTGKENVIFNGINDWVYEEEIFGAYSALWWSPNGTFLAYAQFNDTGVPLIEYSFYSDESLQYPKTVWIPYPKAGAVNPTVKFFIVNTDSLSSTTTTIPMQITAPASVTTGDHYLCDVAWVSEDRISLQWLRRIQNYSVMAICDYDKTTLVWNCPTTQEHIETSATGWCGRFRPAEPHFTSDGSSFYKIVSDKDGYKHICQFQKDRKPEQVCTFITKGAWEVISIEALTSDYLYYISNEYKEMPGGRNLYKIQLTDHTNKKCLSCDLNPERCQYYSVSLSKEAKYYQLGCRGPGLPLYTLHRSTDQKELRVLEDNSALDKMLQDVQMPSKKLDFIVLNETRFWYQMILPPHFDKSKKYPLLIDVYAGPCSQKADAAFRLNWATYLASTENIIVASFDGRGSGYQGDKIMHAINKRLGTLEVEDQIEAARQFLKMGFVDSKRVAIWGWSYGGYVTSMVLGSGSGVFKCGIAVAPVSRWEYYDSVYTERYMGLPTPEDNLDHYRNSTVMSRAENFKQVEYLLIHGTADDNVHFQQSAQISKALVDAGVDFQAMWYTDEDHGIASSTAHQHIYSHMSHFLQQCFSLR
- Method: DPP-IV activity in rat plasma
- Reported Conditions: substrate H-Glycine-Proline-AMC, pH 7.8, room temperature, 20 min
Counter-ions that a name gives are not always drawn.
Listed below: IC50 values for each entry.
Please give a number only; it is taken to be in µM.

Here's what some known entries look like.
Molecule | Subject Of Test | Display Unit | IC50
O=C(CNCCNc1ccccn1)N1CCSC1 [Ex. 1, dihydrochloride] | rat plasma DPP-IV (Rattus norvegicus) | µM | 10.5
O=C(CNCCNc1ccc(Cl)cn1)N1CCSC1 [Ex. 4] | rat plasma DPP-IV (Rattus norvegicus) | µM | 7.1

Now turn to the next molecule.
Record O=C(CNC1(CO)CCCC1)N1CCSC1 [Ex. 2, hydrochloride] , field IC50: 3.3

---

- Subject Of Test: human plasma DPP-IV (Homo sapiens, UniProt P27487)
- Construct: DPP-IV activity in human and rat plasma
- Sequence (P27487 39-766 limits assumed): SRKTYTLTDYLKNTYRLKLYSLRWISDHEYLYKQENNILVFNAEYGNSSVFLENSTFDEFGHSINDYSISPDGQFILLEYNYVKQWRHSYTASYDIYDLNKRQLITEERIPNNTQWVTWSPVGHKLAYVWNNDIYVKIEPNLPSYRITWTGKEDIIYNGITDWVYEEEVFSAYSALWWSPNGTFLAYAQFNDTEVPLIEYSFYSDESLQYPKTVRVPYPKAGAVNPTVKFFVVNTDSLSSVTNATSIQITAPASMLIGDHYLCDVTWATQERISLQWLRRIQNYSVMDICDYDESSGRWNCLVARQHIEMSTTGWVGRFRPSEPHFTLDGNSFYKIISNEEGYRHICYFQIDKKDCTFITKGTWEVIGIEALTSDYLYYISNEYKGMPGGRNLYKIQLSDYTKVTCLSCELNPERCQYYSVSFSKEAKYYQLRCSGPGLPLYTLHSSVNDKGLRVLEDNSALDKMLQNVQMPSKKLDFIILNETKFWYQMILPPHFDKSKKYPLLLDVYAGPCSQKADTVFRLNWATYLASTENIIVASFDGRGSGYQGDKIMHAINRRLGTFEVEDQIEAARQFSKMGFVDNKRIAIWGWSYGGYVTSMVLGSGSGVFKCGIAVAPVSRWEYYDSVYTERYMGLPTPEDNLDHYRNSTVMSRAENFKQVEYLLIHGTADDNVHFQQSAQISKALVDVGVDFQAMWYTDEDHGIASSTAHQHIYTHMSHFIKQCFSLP
- Method: DPP-IV activity in human plasma
- Reported Conditions: substrate H-Glycine-Proline-AMC, pH 7.8, room temperature, 20 min
Structures can show the parent of a compound that is named as a salt.
Outcome Measure: IC50 (µM)
Please give a number only; it is taken to be in µM.

Here's what some known entries look like.
Molecule | IC50 [µM]
O=C(CNC1(CO)CCCC1)N1CCSC1 [Ex. 2, hydrochloride] | 5.7
O=C(CNCCNc1ccc(Cl)cn1)N1CCSC1 | 21

Record O=C(CNCCNc1ccccn1)N1CCSC1 [Ex. 1, dihydrochloride] , field IC50: 6.8
